List of composite z-score values.
target: Torsin-1A-interacting protein 2 (Homo sapiens) (UniProt Q8NFQ8); test: LULL1 binders on small-molecule microarray, primary screen, cell lysate, human LULL1 lysate, 635/667 nm fluorescence (AID 1092); settings: hLULL1 lysate binding, 635 nm fluorescence, higher = more signal;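 note: probe is lysate of COS7 cells overexpressing human LULL1; score merges per-feature 667 nm fluorescence with signal-to-noise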
Sequence (Q8NFQ8 whole entry, looked up): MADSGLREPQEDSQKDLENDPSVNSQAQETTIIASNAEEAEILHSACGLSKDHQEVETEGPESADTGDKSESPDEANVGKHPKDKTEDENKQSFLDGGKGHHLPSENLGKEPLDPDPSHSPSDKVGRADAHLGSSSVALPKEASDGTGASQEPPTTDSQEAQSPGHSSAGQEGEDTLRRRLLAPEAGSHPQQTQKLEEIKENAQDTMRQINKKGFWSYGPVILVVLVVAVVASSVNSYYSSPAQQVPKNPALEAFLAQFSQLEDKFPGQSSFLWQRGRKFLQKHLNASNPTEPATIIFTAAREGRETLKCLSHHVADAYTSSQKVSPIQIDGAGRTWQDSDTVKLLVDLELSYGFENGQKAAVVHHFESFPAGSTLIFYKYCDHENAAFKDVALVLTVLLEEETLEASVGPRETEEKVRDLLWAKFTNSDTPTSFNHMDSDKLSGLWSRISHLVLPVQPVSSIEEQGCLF

Example molecules with recorded composite z-score:
CC(=O)NCCCC[C@@H]1NC(=O)[C@H]2C[C@@H](C(=O)NCCCCCC[N+](C)(C)C)[C@@H](c3ccc(O)cc3)N2C1=O ... 3.04
CC(C)C[C@@H]1NC(=O)[C@@H]2C[C@H](C(=O)O)[C@H](c3ccc(O)cc3)N2C1=O ... 1.77
CC(C)CNC(=O)[C@@H]1c2ccccc2C(=O)N(CC23CC4CC(CC(C4)C2)C3)[C@H]1c1ccc(CO)cc1 ... 2.69
NC(=O)NCC#Cc1ccc2c(c1)[C@]1(C(=O)N2)[C@H](C(=O)Nc2nc3ccccc3s2)[C@H]2C(=O)O[C@H](c3ccccc3)[C@H](c3ccccc3)N2[C@@H]1c1ccc(OCCO)cc1 ... 0.963
COc1ccc([Si](C)(C)[C@H]2[C@H](CCn3cc([C@H](O)c4ccccc4)nn3)O[C@@]3(C(=O)N(C)c4c(Br)cc(C)cc43)[C@@H]2C)cc1 ... -0.168

*Q* Quickly give me recorded composite z-score for COCCOC(=O)N1C(=O)[C@@]2(c3cc(C#CC4(O)CCCCCC4)ccc31)[C@H](c1ccc(OCCO)cc1)N1[C@H](c3ccccc3)[C@H](c3ccccc3)OC(=O)[C@H]1[C@@H]2C(=O)N1CCCCCCC1
*A* 3.09

*Q* Look up and report measured composite z-score for this entry: COCCOC(=O)N1C(=O)[C@@]2(c3cc(C#CCCO)ccc31)[C@H](c1ccc(O)cc1)N1[C@H](c3ccccc3)[C@H](c3ccccc3)OC(=O)[C@H]1[C@@H]2C(=O)N1CCc2cc(OC)c(OC)cc2C1
*A* 2.45

*Q* # return recorded composite z-score for entry COC(=O)[C@@]1(Cc2ccccc2CN=[N+]=[N-])COC(c2ccc(OCCCO)cc2)=N1
*A* 3.04

*Q* Hello, please tell me recorded composite z-score for this one: CC[C@H](C)C(=O)O[C@H]1CC[C@]2(C)C3=C(CCC2C1(C)C)[C@]1(C)CC[C@H]([C@H](C)CCCC(C)C)[C@@]1(C)CC3 (some centres undefined)
*A* 0.125

###

molecular target: Torsin-1A (Homo sapiens); assay: torsin A binders from cell lysate, primary screen, small-molecule microarray, wild-type, 635/667 nm (AID 1149); conditions: COS7 hTOR1A-WT lysate, 635 nm fluorescence, higher = more signal
composite z-score of 0.5 or higher: yes (1). Under 0.5: no (0).

CCOC(=O)C1=C[C@@H](C(C)(C)C)N(S(=O)(=O)c2ccc(C)cc2)[C@H]1c1ccccc1Cl ... no (0)
CN(C)CCCC[C@@H]1NC(=O)[C@H]2C[C@@H](C(=O)NCc3ccc(F)cc3)[C@@H](c3ccc(O)cc3)N2C1=O ... yes (1)
NCCCC[C@@H]1NC(=O)[C@H]2C[C@@H](C(=O)O)[C@@H](c3cccc(OCCO)c3)N2C1=O ... yes (1)

*Q* Is it the case that Cc1ccc(S(=O)(=O)N2[C@@H](c3ccccc3)C(C(=O)O)=CC[C@H]2c2ccc(C#N)cc2)cc1 has composite z-score reaching or exceeding 0.5?
*A* yes (1)

*Q* Confirm if composite z-score reported for the compound C=C(COC)C(=O)CC[C@@H](OC(C)=O)c1ccc(OCCO)cc1 is 0.5 or above.
*A* yes (1)

*Q* # bool: composite z-score of CC(C)CNC(=O)[C@@H]1c2ccccc2C(=O)N(Cc2ccccc2)[C@H]1c1ccc(CO)cc1 >= 0.5
*A* no (0)

*Q* Textbook exercise: given the entry CC(C)[C@@H](C(=O)O)n1cc(-c2ccccc2)nn1 , state whether its composite z-score is greater than or equal to 0.5.
*A* no (0)

*Q* For this compound, is measured composite z-score 0.5 or higher? O=C1O[C@@H](c2ccccc2)[C@@H](c2ccccc2)N2[C@@H](c3ccc(OCCO)cc3)[C@]3(C(=O)Nc4ccc(C#CCCO)cc43)[C@@H](C(=O)Nc3nc4ccccc4s3)[C@H]12
*A* no (0)

###

test: P. aeruginosa biofilm formation inhibitors, primary screen, strain PAO1, LB-PBS medium, absorbance 600 nm (AID 1176); note: test concentration not given here; conditions: P. aeruginosa PAO1 growth/biofilm, A600, 12 h; higher = more signal
Answer -1 if z-score is under 0.5, and 1 if it is 0.5 or more.

These recorded examples may help you get a feel for the data.
CCN(CC)c1ccc(N2CC=CC34O[C@@H]5C=CCOC(=O)[C@@H]5[C@H]3C(=O)N(CCCO)[C@@H]4C2=O)cc1 (some centres not stated) ... 1
CC(C)C[C@@H]1NC(=O)[C@@H]2C[C@H](C(=O)NCCCC[N+](C)(C)C)[C@H](c3ccc(O)cc3)N2C1=O ... 1
Cc1ccccc1C(O)C1C=CC2C(=O)N(c3ccccc3)C(=O)C2N1Nc1ccccc1F (configuration not stated) ... 1

*Q* State whether the measured z-score reaches 0.5, counting equality as reaching it, for O=c1cccc(-c2ccccc2C(F)(F)F)o1
*A* 1

*Q* Is z-score at least 0.5? Consider COCCOC(=O)N1C(=O)[C@@]2(c3cc(C#CC4=CCCCC4)ccc31)[C@H](c1ccc(OCCO)cc1)N1[C@H](c3ccccc3)[C@H](c3ccccc3)OC(=O)[C@H]1[C@@H]2C(=O)N1CCCCCCC1
*A* 1

*Q* Kindly determine if z-score recorded for CN(C)CCCC[C@@H]1NC(=O)[C@@H]2C[C@H](C(=O)NCCCCCCNC(=O)CS)[C@H](c3cccc(OCCO)c3)N2C1=O is above or exactly 0.5.
*A* -1

*Q* Please tell me: is the molecule COc1ccc(CCNC(=O)[C@@]2(Sc3ccc(C)cc3)CC(=O)N(Cc3cc(C(F)(F)F)cc(C(F)(F)F)c3)[C@@H]2c2ccc(CO)cc2)cc1 at or over 0.5 in terms of z-score?
*A* -1

###

assay: basal RPMI8226 viability, no added stimulus, profiling panel, cell-based, calcein-AM fluorescence, 48 h, PK04 Diversity Set (AID 1166); settings: RPMI8226 myeloma viability, higher = more signal;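 note: cells grown under basal conditions without added stimulus; test concentration not given here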
Kindly apply the following: met if z-score is less than -0.6, not met in every other case.

Would you please look over these solved cases?
O=C1OCCC=C[C@H]2OC34C=CCN(c5ccc(Cl)cc5)C(=O)[C@H]3N(CCO)C(=O)[C@@H]4C12 (some centres not stated) ... not met
Cc1ccc(S(=O)(=O)N2[C@@H](c3ccccc3)C(C(=O)O)=CC[C@H]2c2ccc(C#N)cc2)cc1 ... not met
Cc1ccc(S[C@]2(C(=O)NCCN3CCOCC3)CC(=O)N(C3CCCCC3)[C@@H]2c2ccc(CO)cc2I)cc1 ... met
COC(=O)[C@@]1(Cc2ccc(OC)cc2)[C@@H]2[C@@H](CC(=O)[C@H]2CC(=O)C(=O)N2CCCC2)CN1C(=O)c1ccccc1 ... met
CC(C)[Si](C#CCCCC#N)(O[C@H](c1ccccc1)c1cn([C@H](C)c2ccccc2)nn1)C(C)C ... met

Next item in the queue.
*Q* Criterion: z-score strictly below -0.6. Is it met by CCOC(=O)C[C@H]1[C@H](OC(=O)c2ccc(-c3ccccc3)cc2)[C@@H](NC(=O)CC(C)C)c2cc(OCCCO)ccc2N1C(=O)Cc1ccc(OC)cc1 ?
*A* not met

###

assay: Plasmodium falciparum growth inhibition, primary screen, strain 3D7, DAPI fluorescence, 100 nL (AID 1184);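 note: parasites grown inside human red blood cells in medium with human serum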; details: P. falciparum 3D7 growth, 3 d, higher = more signal
Respond with criterion met for z-score values of -0.8 and above, criterion not met for values below.

// below: answered compounds
CCCCCN1CC=CC23O[C@@H]4C=CCOC(=O)[C@@H]4[C@H]2C(=O)N(CCCCCO)[C@@H]3C1=O (stereo partly specified) ... criterion met
O=C1c2ccccc2[C@](Cc2ccccc2I)(C(=O)O)[C@H](c2ccc(CO)cc2)N1Cc1ccccc1 ... criterion met
CC1(C)OC[C@@]23C=C(Br)[C@@H](C[C@H]12)[C@@]1(CO1)C3=O ... criterion met
C=C(C(=O)CC[C@@H](OC(C)=O)c1cccc(OCCO)c1)C(C)C ... criterion not met
CC[C@H](C)C(=O)O[C@H]1CC[C@]2(C)C3=C(CCC2C1(C)C)[C@]1(C)CC[C@H]([C@H](C)CCCC(C)C)[C@@]1(C)CC3 (stereo partly specified) ... criterion met

*Q* Record COc1ccc(NC(=O)O[C@H]2[C@H](OC(=O)Nc3ccc4c(c3)OCO4)[C@H](OC(=O)Nc3ccc4c(c3)OCO4)[C@@H](OC)O[C@@H]2CO)cc1 ; criterion: z-score no lower than -0.8. Met?
*A* criterion not met

*Q* Kindly determine if z-score recorded for CC(C)(C)OC(=O)CC[C@]1(C(=O)N2CCOCC2)N=C(c2ccc(OCCCO)cc2)O[C@H]1c1ccccc1CN=[N+]=[N-] is above or exactly -0.8.
*A* criterion not met

*Q* hey, is z-score for this one >= -0.8? CN1C=C(C(=O)OCCS(C)(=O)=O)C(C(=O)OCCS(C)(=O)=O)=CC(CCCO)=CC1c1ccc(CN2CCCC2)cc1 (stereo unspecified)
*A* criterion not met

*Q* # check: z-score of N#Cc1ccc(C(O)C2C=CC3C(=O)N(c4ccccc4)C(=O)C3N2Nc2ccc([N+](=O)[O-])cc2)cc1 (stereo unspecified) is greater than or equal to -0.8
*A* criterion not met

*Q* Textbook exercise: given the entry CC=CC(O)C1C=CC2C(=O)N(C)C(=O)C2N1NC(=O)OC(C)(C)C (stereo unspecified) , state whether its z-score is greater than or equal to -0.8.
*A* criterion met

*Q* Does the reported z-score for N[C@@H](Cc1ccccc1)Cn1cc(C2(O)CCCCC2)nn1 fall at or above the -0.8 mark?
*A* criterion met

*Q* Could you verify whether the entry COCCn1c(C(=O)N2CCCC2)cc2c1C[C@H]1CN(C(=O)c3ccccc3)[C@@](Cc3ccccc3)(C(=O)OC)[C@@H]21 shows z-score of no less than -0.8?
*A* criterion not met

*Q* Would you say CCC[C@@H]1[C@@H](Sc2ccccc2)[C@@H](C(=O)O)[C@H](c2ccc(C)cc2)N1S(=O)(=O)c1ccc(C)cc1 shows z-score at minimum -0.8?
*A* criterion met

*Q* Answer whether z-score of CC#CCO[Si](C#CCCCCCC)(C(C)C)C(C)C is greater than or equal to -0.8.
*A* criterion not met

*Q* Hi, just wondering whether NCCCC[C@@H]1NC(=O)[C@H]2C[C@@H](C(=O)O)[C@@H](c3cccc(OCCO)c3)N2C1=O shows z-score of -0.8 or higher.
*A* criterion met
